Hello, the source for this data is patent US20060004207A1, in case you need it.

experiment: Solubility of crystalline forms of losartan potassium; settings: 0.1 M HCl, simulated gastric fluid
observation-type: solubility (µg/mL)
Supply the numeric figure in µg/mL, leaving out any unit text.

Form field solubility, entry CCCCc1nc(Cl)c(CO)n1Cc1ccc(-c2ccccc2-c2nn[nH]n2)cc1 [Form I, losartan potassium, reference compound] : 1520

###

assay: Rate of dissolution of the substance, 75 mg in 50 ml 0.1 M HCl; format: physicochemical
Kindly supply the reported RATE OF DISSOLUTION values for the records listed here.

Record CCCCc1nc(Cl)c(CO)n1Cc1ccc(-c2ccccc2-c2nn[nH]n2)cc1 [Milled sample of Form I, losartan potassium, reference compound] . Reported RATE OF DISSOLUTION: 8 min

Lab note: CCCCc1nc(Cl)c(CO)n1Cc1ccc(-c2ccccc2-c2nn[nH]n2)cc1 [Form I, losartan potassium, reference compound] gave RATE OF DISSOLUTION of 16 min

Field RATE OF DISSOLUTION (entry CCCCc1nc(Cl)c(CO)n1Cc1ccc(-c2ccccc2-c2nnn[n-]2)cc1.[K+] [LST-K-1481] ) reads 14 min

Memo: CCCCc1nc(Cl)c(CO)n1Cc1ccc(-c2ccccc2-c2nnn[n-]2)cc1.[K+] [LST-K-1496/1] , reported RATE OF DISSOLUTION: 13 min
